Below, each entry is listed with its recorded screen value.
B1: talin-1 head domain (THD1) [not stated] / ATTO 488-labelled β3-CT (488–β3-CT) [modified: ATTO 488 at the N terminus; ATTO 488 at the N terminus] [not stated] (parent)
chain 1: MVALSLKISIGNVVKTMQFEPSTMVYDACRMIRERIPEALAGPPNDFGLFLSDDDPKKGIWLEAGKALDYYMLRNGDTMEYRKKQRPLKIRMLDGTVKTIMVDDSKTVTDMLMTICARIGITNHDEYSLVRELMEEKKDEGTGTLRKDKTLLRDEKKMEKLKQKLHTDDELNWLDHGRTLREQGVEEHETLLLRRKFFYSDQNVDSRDPVQLNLLYVQARDDILNGSHPVSFDKACEFAGFQCQIQFGPHNEQKHKAGFLDLKDFLPKEYVKQKGERKIFQAHKNCGQMSEIEAKVRYVKLARSLKTYGVSFFLVKEKMKGKNKLVPRLLGITKECVMRVDEKTKEVIQEWSLTNIKRWAASPKSFTLDFGDYQDGYYSVQTTEGEQIAQLIAGYIDIILKKKKS
chain 2: KLLITIHDRKEFAKFEEERARAKWDTANNPLYKEATSTFTNITYRGT

variants of: B1; assay: MST; settings: with ATTO 488-labelled β3-CT (488–β3-CT) [modified: ATTO 488 at the N terminus, 30-40 µM KIND2, n = 2, read off a plot

Here is how some variants turned out for screen value.
[[record]]
mutation_descriptor = "chain 1 I396A"
experimental_value = 1

[[record]]
mutation_descriptor = "chain 1 Y395A"
experimental_value = 0.68

[[record]]
mutation_descriptor = "chain 1 K401A"
experimental_value = 0.55


Note: attention shifts to another entry.
Problem: I would be grateful if you could share the reported screen value for chain 1 I399A .
Solution: 0.93

Data credit: paper PMC10716038
